The entries below come with measured Decrease values attached.
Test system: Mus musculus
Assay: Antihyperglycemic activity in mice at a dose of 20 mg/kg
Type: functional

> print(dat)
                                   molecule  result
1  O=S1NC(Cc2ccc3ccccc3c2)=NO1 (configuration not stated)    -37%
2  O=S1NC(Cc2coc3ccccc23)=NO1 (configuration not stated)   <-15%
3  O=S1NC(Cc2ccc(OCCc3ccccc3)cc2)=NO1 (configuration not stated)   <-15%
4  Cc1ccc2occ(CC3=NOS(=O)N3)c2c1 (configuration not stated)   <-15%
5  O=S1NC(Cc2cccc(C(F)(F)F)c2)=NO1 (configuration not stated)   <-15%
6  O=S1NC(Cc2ccc(Br)cc2F)=NO1 (configuration not stated)    -17%
7  Cc1ccc(CC2=NOS(=O)N2)cc1C (configuration not stated)   <-15%
8  O=S1NC(Cc2ccc(-c3ccccc3)cc2)=NO1 (configuration not stated)   <-15%

Turning now to a further record.
Decrease in this record for O=S1NC(Cc2coc3c(Cl)cccc23)=NO1 (configuration not stated) : -26%
